The following binders are shown together with reported percent scFv-conjugate (not liposome-bound) EphA2 binding on-rate values.
tgt: T1, His6-tagged recombinant human EphA2 protein (human, UniProt P29317 25-534)
T1 construct: also called his-tagged recombinant, human EphA2; human EphA2 with c-terminal His6
assay remarks: BLI (Octet Red 96); His6-EphA2 on anti-His sensors; slope of association curve of scFv-PEG-DSPE conjugate; TS1C printed as 100

QUERY: Which percent scFv-conjugate (not liposome-bound) EphA2 binding on-rate value belongs to TS1C (scFv, also called parental clone TS1 (C form)) scFv: QVQLVQSGGGLVQPGGSLRLSCAASGFTFSSYAMHWVRQAPGKGLEWVAVISYDGSNKYYADSVKGRFTISRDNSKNTLYLQMNSLRAEDTAVYYCARASVGATGPFDIWGQGTLVTVSSASTGGGGSGGGGSGGGGSGGGGSSSELTQPPSVSVAPGQTVTITCQGDSLRSYYASWYQQKPGTAPKLLIYGENNRPSGVPDRFSGSSSGTSASLTITGAQAEDEADYYCNSRDSSGTHLTVFGGGTKLTVLGGGSGGC ?
RESULT: 100%

# context switch: different binder, same percent scFv-conjugate (not liposome-bound) EphA2 binding on-rate
QUERY: Which percent scFv-conjugate (not liposome-bound) EphA2 binding on-rate value belongs to scFv-4C (scFv, also called clone 4) scFv: QVQLVQSGGGLVQPGGSLRLSCAASGFTFSSYAMHWVRQAPGKGLEWVTVISPHGRNKYYADSVKGRFTISRDNSKNTLYLQMNSLRAEDTAVYYCARASVGATGPFDIWGQGTLVTVSSASTGGGGSGGGGSGGGGSGGGGSSSELTQPPSVSVAPGQTVTITCQGDSLRSYYASWYQQKPGTAPKLLIYGENNRPSGVPDRFSGSSSGTSASLTITGAQAEDEADYYCNSRDSSGTHLTVFGGGTKLTVLGGGSGGC ?
RESULT: 97.3%
